# System under test: ZmDRIK1-K217-S514 (Zea mays)
# Construct: kinase domain, K217-S514
# Sequence (C0P4K9 1-514): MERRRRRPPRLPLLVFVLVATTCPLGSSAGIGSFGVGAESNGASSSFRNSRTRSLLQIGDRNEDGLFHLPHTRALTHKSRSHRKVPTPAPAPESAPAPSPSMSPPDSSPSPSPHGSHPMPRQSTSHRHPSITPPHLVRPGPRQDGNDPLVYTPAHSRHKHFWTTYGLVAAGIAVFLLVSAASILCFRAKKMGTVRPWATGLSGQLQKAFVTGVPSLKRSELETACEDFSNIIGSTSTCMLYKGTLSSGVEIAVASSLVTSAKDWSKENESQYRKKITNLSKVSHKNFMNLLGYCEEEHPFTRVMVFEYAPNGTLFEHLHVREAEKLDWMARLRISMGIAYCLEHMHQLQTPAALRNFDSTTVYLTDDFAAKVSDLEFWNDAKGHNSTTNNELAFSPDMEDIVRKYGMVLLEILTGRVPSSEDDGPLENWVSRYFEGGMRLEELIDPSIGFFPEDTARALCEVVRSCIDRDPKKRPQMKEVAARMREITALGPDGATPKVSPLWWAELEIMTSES
# Protocol: biochemical
# Experimental context: read-out: dTm B, sheet ZmDRIK1-K217-S514;; DSF, Boltzmann fit, 0.1% DMSO
Decide using ΔTm at 10 µM: a value greater than or equal to -0.3 °C is 1.0, a smaller one is 0.0.

For orientation, consider the following solved cases.
* CCCS(=O)(=O)Nc1ccc(F)c(C(=O)c2c[nH]c3ncc(Cl)cc23)c1F [PLX-4720] | 0.0
* CNC(=O)c1cc(Oc2ccc(NC(=O)Nc3ccc(Cl)c(C(F)(F)F)c3)c(F)c2)ccn1 [Regorafenib (BAY 73-4506)] | 1.0
* CN(C[C@@H]1COCCO1)S(=O)(=O)Nc1ccc2ccc3ncc(-c4cnn(C)c4)cc3c(=O)c2c1 [MK-2461] | 0.0

Tell me whether ΔTm at 10 µM is at least -0.3 °C here: COc1cc(Nc2ncc3c(n2)-c2ccc(Cl)cc2C(c2c(F)cccc2OC)=NC3)ccc1C(=O)O [Alisertib (MLN8237)]
0.0

Determine whether this compound has ΔTm at 10 µM no lower than -0.3 °C: Cn1cc(-c2ccc3nnc(C(F)(F)c4ccc5ncccc5c4)n3n2)cn1 [JNJ-38877605]
0.0

Evaluate Cn1cnc2c(F)c(Nc3ccc(Br)cc3F)c(C(=O)NOCCO)cc21 [MEK162 (ARRY-162)] : ΔTm at 10 µM at minimum -0.3 °C?
0.0

ΔTm at 10 µM >= -0.3 °C for Cc1c(NC(=O)OC[C@@H]2COCCN2)cn2ncnc(Nc3ccc4c(cnn4Cc4cccc(F)c4)c3)c12 [AC480 (BMS-599626)] ?
1.0

Decide: is the reported value of ΔTm at 10 µM for CCc1nc(-c2cccc(C)c2)c(-c2ccnc(NC(=O)c3ccccc3)c2)s1 [TAK-715] equal to or greater than -0.3 °C?
0.0

ΔTm at 10 µM >= -0.3 °C for CCN1CCN(C(=O)Cc2ccc(Nc3ncc(F)c(Nc4ccc(C(=O)Nc5ccccc5Cl)cc4)n3)cc2)CC1 [Aurora A Inhibitor I] ?
1.0

Evaluate Nc1ccc(-c2ccc3ncc4ccc(=O)n(-c5cccc(C(F)(F)F)c5)c4c3c2)cn1 [Torin 2] : ΔTm at 10 µM at minimum -0.3 °C?
0.0

---

Recorded measurements of ΔTm at 10 µM, one per entry
# System under test: ZmDRIK1-R187-P492 (Zea mays, UniProt C0P4K9)
# Construct: kinase domain, R187-P492
# Protocol: biochemical
# Experimental context: read-out: dTm B, DSF, Boltzmann fit, 0.1% DMSO
Counter-ions that a name gives are not always drawn.

// worked examples, ΔTm at 10 µM included
• Cc1cnc(-c2cnc(NCCNc3ccc(C#N)cn3)nc2-c2ccc(Cl)cc2Cl)[nH]1 [CHIR-99021 (CT99021) HCl] = -0.404 °C
• C=CC(=O)Nc1cccc(Nc2nc(Nc3ccc(Oc4ccnc(C(=O)NC)c4)cc3)ncc2F)c1 [CNX-774] = -1.55 °C
• CCN1CCN(Cc2ccc(Nc3ncc(F)c(-c4cc(F)c5nc(C)n(C(C)C)c5c4)n3)nc2)CC1 [LY2835219] = -0.433 °C
• CO[C@H]1C[C@@H]2CC[C@@H](C)[C@@](O)(O2)C(=O)C(=O)N2CCCC[C@H]2C(=O)O[C@H]([C@H](C)C[C@@H]2CC[C@H](n3cnnn3)[C@H](OC)C2)CC(=O)[C@H](C)/C=C(\C)[C@@H](O)[C@@H](OC)C(=O)[C@H](C)C[C@H](C)/C=C/C=C/C=C/1C [Zotarolimus(ABT-578)] = -0.286 °C
• O=C(Nc1cc(C(F)(F)F)cc(C(F)(F)F)c1)c1cc(Cl)ccc1O [IMD 0354] = 0.639 °C

Memo: C#Cc1cccc(Nc2ncnc3cc(OCCOC)c(OCCO)cc23)c1 [OSI-420] , reported ΔTm at 10 µM: -0.201 °C

---

# System under test: ZmDRIK1-K217-P492 (Zea mays, UniProt C0P4K9)
# Construct: kinase domain, K217-P492
# Protocol: biochemical
# Experimental context: read-out: dTm B, sheet ZmDRIK1-K217-P492;; DSF, Boltzmann fit, 0.1% DMSO
The molecules listed here are annotated with their ΔTm at 10 µM.
Answer with a number only, understood to be in °C.

Look over these answered cases.
* O=C1NC(=O)/C(=C/c2ccc(-c3ccc(F)cc3O)o2)S1 | 1.37
* COc1cccc2cc(-c3nc([C@H]4CC[C@H](C(=O)O)CC4)n4ncnc(N)c34)[nH]c12 | -1.03
* N#CC1(c2ccc(NC(=O)c3cccnc3NCc3ccncc3)cc2)CCCC1 | -0.944

We now examine a further molecule.
In plain terms, `Cc1ccc(F)c(NC(=O)Nc2ccc(-c3cccc4[nH]nc(N)c34)cc2)c1` has a documented ΔTm at 10 µM of -4.15

---

# System under test: ZmDRIK1-K217-S514 (Zea mays, UniProt C0P4K9)
# Construct: kinase domain, K217-S514
# Protocol: biochemical
# Experimental context: read-out: dTm B, sheet ZmDRIK1-K217-S514;; DSF, Boltzmann fit, 0.1% DMSO
Listed next: entries and their corresponding ΔTm at 10 µM.
Kindly provide the numeric value in °C only, without the unit symbol.

* NC1(Cc2ccc(Cl)cc2)CCN(c2ncnc3[nH]ccc23)CC1 | -0.48

Please find the next compound below.
`COC[C@H]1OC(=O)c2coc3c2[C@@]1(C)C1=C(C3=O)[C@@H]2CCC(=O)[C@@]2(C)C[C@H]1OC(C)=O` yielded ΔTm at 10 µM of -0.299

---

# System under test: ZmDRIK1-K217-P492 (Zea mays)
# Construct: kinase domain, K217-P492
# Protocol: biochemical
# Experimental context: read-out: dTm B, sheet ZmDRIK1-K217-P492;; DSF, Boltzmann fit, 0.1% DMSO
Criterion: ΔTm at 10 µM strictly less than -0.8 °C. Met: rule met. Not met: rule not met.

Check out these entries, answers already filled in.
• COc1cc(N2CCC(N)CC2)ccc1Nc1ncc(Cl)c(-c2c[nH]c3ccccc23)n1 [AZD3463] = rule not met
• CNC(=O)CN1CCC(Oc2cc3c(Nc4cccc(Cl)c4F)ncnc3cc2OC)CC1 [AZD8931 (Sapitinib)] = rule met
• Cc1[nH]c(/C=C2\C(=O)Nc3ccc(S(=O)(=O)Cc4c(Cl)cccc4Cl)cc32)c(C)c1C(=O)N1CCC[C@@H]1CN1CCCC1 [PHA-665752] = rule met
• O=c1cc(N2CCOCC2)oc2c(-c3cccc4c3sc3ccccc34)cccc12 [NU7441 (KU-57788)] = rule met
• CS(=O)(=O)c1cccc(CNc2nc(Nc3ccc4c(c3)CCC(=O)N4)ncc2C(F)(F)F)c1 [PF-573228] = rule met

Is the reported ΔTm at 10 µM for Cc1cc(Nc2nc(N[C@@H](C)c3ccc(F)cc3)c(C#N)cc2F)n[nH]1 [AZ 960] strictly below -0.8 °C?
rule not met

is_below(ΔTm at 10 µM, -0.8 °C) for CC(=O)Nc1nc(C)c(-c2ccc(Cl)c(S(=O)(=O)NCCO)c2)s1 [PIK-93] ?
rule not met

Criterion: ΔTm at 10 µM strictly below -0.8 °C. Is it met by CNC(=O)c1ccccc1Sc1ccc2c(/C=C/c3ccccn3)n[nH]c2c1 [Axitinib] ?
rule met

Record O=C(NC1CCNCC1)c1n[nH]cc1NC(=O)c1c(Cl)cccc1Cl [AT7519] : is its ΔTm at 10 µM strictly below -0.8 °C?
rule not met

Say whether its ΔTm at 10 µM is strictly beneath -0.8 °C. Entry: COc1ccc2cc(-c3nc(-c4ccc([S+](C)[O-])cc4)[nH]c3-c3ccncc3)ccc2c1 (stereo not shown) [Tie2 kinase inhibitor]
rule met

Please check: ΔTm at 10 µM for COc1cc2ncnc(Oc3cccc(NC(=O)Nc4cc(C(C)(C)C(F)(F)F)on4)c3)c2cc1OC [CEP-32496] , strictly under -0.8 °C or not?
rule not met
